# Test system: Candida albicans
# METHOD_SUMMARY: Antibiofilm activity against Candida albicans ATCC 90028 by two dimensional checkerboard dilution method
# Type: functional
Listed here: items and their measured MIC.
Please state the figure in µM; there is no need to write the unit.

Consider the following illustrative entries.
>  <MOLECULE>
CC(=O)Oc1ccccc1C(=O)O [ASPIRIN]

>  <MIC [µM]>
1000

$$$$
>  <MOLECULE>
CC(C)Cc1ccc(C(C)C(=O)O)cc1 (centres undefined) [IBUPROFEN]

>  <MIC [µM]>
1000

$$$$

Let's switch to this molecule now.
What does the data say about its MIC? Entry: O=C([O-])Cc1ccccc1Nc1c(Cl)cccc1Cl.[Na+] [DICLOFENAC SODIUM]
100000

----------
Listed here: items and their measured MIC.
# System: Candida albicans
# METHOD_SUMMARY: Antibiofilm activity against Candida albicans 17a18 by two dimensional checkerboard dilution method
# Format: functional

>  <COMPOUND>
CC(=O)Oc1ccccc1C(=O)O [ASPIRIN]

>  <MIC>
200 µM

$$$$
>  <COMPOUND>
O=C([O-])Cc1ccccc1Nc1c(Cl)cccc1Cl.[Na+] [DICLOFENAC SODIUM]

>  <MIC>
100000 µM

$$$$
>  <COMPOUND>
CCCCCOc1ccc(-c2ccc(-c3ccc(C(=O)N[C@@H]4C[C@@H](O)[C@@H](O)NC(=O)[C@@H]5[C@@H](O)[C@@H](C)CN5C(=O)[C@H]([C@@H](C)O)NC(=O)[C@H]([C@H](O)[C@@H](O)c5ccc(O)cc5)NC(=O)[C@@H]5C[C@@H](O)CN5C(=O)[C@H]([C@H](C)O)NC4=O)cc3)cc2)cc1

>  <MIC>
2 µg/mL

$$$$

Let's switch to this compound now.
What does the data say about its MIC? Entry: CC(C)Cc1ccc(C(C)C(=O)O)cc1 (centres undefined) [IBUPROFEN]
1000 µM
